experimental target: HLA-A*02:17
assay protocol: IEDB peptide-MHC binding, purified MHC/competitive/radioactivity; filed as Kd, often an IC50 or EC50 that approximates it; bounds were set here for any values at or beyond the usual limits of such assays
particulars: source organism: Dengue virus 4 Philippines/H241/1956
property: pKd
Give bare numbers, as −log10 of the molar value.

Consider the following illustrative entries.
{"seq string": "ILGAQALPV", "experimental target": "HLA-A*02:17", "pKd": 5.59}
{"seq string": "SIILEFFLMV", "experimental target": "HLA-A*02:17", "pKd": 6.93}

# query: pKd of entry `LILGAQALPV`
6.32
